Biological target: T1, human PVRIG-his (AcroBiosystems, Cat NO. PVG-H52H4) (human, UniProt Q6DKI7 41-171, limits assumed)
T1 construct: also called human PVRIG protein
T1 sequence (looked up): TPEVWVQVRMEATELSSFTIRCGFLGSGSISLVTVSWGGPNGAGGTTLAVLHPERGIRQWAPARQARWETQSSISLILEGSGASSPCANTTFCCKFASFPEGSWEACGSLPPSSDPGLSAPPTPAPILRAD
Test: SPR (BIAcore), antibody captured on Protein A chip, human PVRIG-His analyte
value.kind: koff (s⁻¹)

binder	value.kind	result.value
PVRIG-A118-H2 (Fc fusion, humanized variant of PVRIG-A118; also called A118.VH2; not shown: constant part not restated for the humanized forms; parents are VHH-hinge-CH2-CH3 of human IgG1; detected by anti-human) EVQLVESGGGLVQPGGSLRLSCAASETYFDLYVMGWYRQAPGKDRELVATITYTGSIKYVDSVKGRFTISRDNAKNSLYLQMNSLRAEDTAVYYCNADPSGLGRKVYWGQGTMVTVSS	koff	0.00082
PVRIG-A105-H4 (Fc fusion, humanized variant of PVRIG-A105; also called A105.VH4; not shown: constant part not restated for the humanized forms; parents are VHH-hinge-CH2-CH3 of human IgG1; detected by anti-human) EVQLVESGGGLVQPGGSLRLSCAASGRTFDRHTMTWFRQAPGKEREFVATASRIPGDTYYSHSVKGRFTISRDNAKNSLYLQMNSLRAEDTAVYYCAATSAYCSEVDCYEKGSWYDNWGQGTMVTVSS	koff	0.000773
